Notes on Ki obtained with UniProtKB P34972.
Sequence (P34972 whole entry): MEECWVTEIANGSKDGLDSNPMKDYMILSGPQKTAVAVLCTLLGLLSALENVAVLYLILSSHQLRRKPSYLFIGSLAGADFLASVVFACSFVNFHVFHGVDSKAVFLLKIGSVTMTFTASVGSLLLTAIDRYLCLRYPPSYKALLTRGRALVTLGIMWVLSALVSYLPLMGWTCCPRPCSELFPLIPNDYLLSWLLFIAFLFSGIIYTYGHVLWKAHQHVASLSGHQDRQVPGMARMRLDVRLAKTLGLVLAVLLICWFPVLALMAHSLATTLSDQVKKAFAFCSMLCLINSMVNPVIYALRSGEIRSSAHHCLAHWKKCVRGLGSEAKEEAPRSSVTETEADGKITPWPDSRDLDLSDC
Express the result in µM but write the number alone.

So the reported Ki for "C[C@H]1OC(=O)[C@@H]2C[C@@H]3CCCC[C@H]3[C@H](/C=C/c3ccc(N4CCCC4)cn3)[C@H]12" , on UniProtKB P34972, turned out to be 0.487

The molecule "C[C@H]1OC(=O)[C@@H]2C[C@@H]3CCCC[C@H]3[C@H](/C=C/c3ccc(-c4cccnc4)cn3)[C@H]12" , when measured on UniProtKB P34972, yielded Ki of 13

---

experiment: Cmax in rat; assay type: ADME, organism-based; details: in vivo
Please assign n whenever Cmax is at or above 300 ng/mL, and y whenever it is below.

input: Does "C[C@H]1OC(=O)[C@@H]2C[C@@H]3CCCC[C@H]3[C@H](/C=C/c3ccc(-c4cccnc4)cn3)[C@H]12" have Cmax strictly under 300 ng/mL?
output: n

input: Item C[C@H]1OC(=O)[C@@H]2C[C@@H]3CCCC[C@H]3[C@H](/C=C/c3ccc(-c4ccc(Cl)s4)cn3)[C@H]12 (racemic) : Cmax beneath 300 ng/mL, strictly?
output: n

input: Criterion: Cmax strictly below 300 ng/mL. Is it met by C[C@H]1OC(=O)[C@@H]2C[C@@H]3CCCC[C@H]3[C@H](/C=C/c3ccc(-c4ccsc4)cn3)[C@H]12 (racemic) ?
output: n

input: Lab log: compare recorded Cmax with 300 ng/mL; is it strictly lower for C[C@H]1OC(=O)[C@@H]2C[C@@H]3CCCC[C@H]3[C@H](/C=C/c3ccc(-c4cccs4)cn3)[C@H]12 (racemic) ?
output: y

input: Threshold test, Cmax < 300 ng/mL: "C[C@H]1OC(=O)[C@@H]2C[C@@H]3CCCC[C@H]3[C@H](/C=C/c3ccc(-c4cccc(C(F)(F)F)c4)cn3)[C@H]12"
output: n

input: Is Cmax of "C[C@H]1OC(=O)[C@@H]2C[C@@H]3CCCC[C@H]3[C@H](/C=C/c3ccc(-c4ccccn4)cn3)[C@H]12" strictly below 300 ng/mL?
output: y

input: Would you kindly verify if Cmax of "C[C@H]1OC(=O)[C@@H]2C[C@@H]3CCCC[C@H]3[C@H](/C=C/c3ccc(-c4ccccc4)cn3)[C@H]12" is strictly less than 300 ng/mL?
output: y

---

Assignment: determine reported AUC(0-t) at 4 h for the given compounds.
assay: AUC (0 to 4 hrs) in rat; format: ADME, organism-based; design: time < 4 hr; concentration or dose not given beside the values; settings: plasma

Data point: C[C@H]1OC(=O)[C@@H]2C[C@@H]3CCCC[C@H]3[C@H](/C=C/c3ccc(-c4cccs4)cn3)[C@H]12 (racemic) ; AUC(0-t) at 4 h = 0.16 µg·h/mL

Entry under test: C[C@H]1OC(=O)[C@@H]2C[C@@H]3CCCC[C@H]3[C@H](/C=C/c3ccc(-c4ccc(Cl)s4)cn3)[C@H]12 (racemic) . Its AUC(0-t) at 4 h was 1.06 µg·h/mL

AUC(0-t) at 4 h for "C[C@H]1OC(=O)[C@@H]2C[C@@H]3CCCC[C@H]3[C@H](/C=C/c3ccc(-c4cccnc4)cn3)[C@H]12" is 4.23 µg·h/mL

---

biological target: Proteinase-activated receptor 1 (Homo sapiens); assay: Displacement of [3H]haTRAP from human PAR1 receptor in platelet membrane at 1 uM; assay type: cell membranes
Label Met when inhibition is at or above 10%; anything below gets Not met.

input: Given the entry "C[C@H]1OC(=O)[C@@H]2C=C3CCCC[C@H]3[C@H](/C=C/c3cnc4ccccc4c3)[C@H]12" , answer whether its inhibition meets or surpasses 10%.
output: Met

input: Does "C[C@H]1OC(=O)[C@@H]2C=C3CCCC[C@H]3[C@H](/C=C/c3nccs3)[C@H]12" have a reported inhibition of at least 10%?
output: Met

input: Does the reported inhibition for "C[C@H]1OC(=O)[C@@H]2C=C3CCCC[C@H]3[C@H](/C=C/c3ccccc3)[C@H]12" fall at or above the 10% mark?
output: Not met

input: Quick check: does "C[C@H]1OC(=O)[C@@H]2C=C3CCCC[C@H]3[C@H](/C=C/c3ccccn3)[C@H]12" have inhibition greater than or equal to 10%?
output: Met

input: Evaluate "C[C@H]1OC(=O)[C@@H]2C[C@@H]3CCCC[C@H]3[C@H](/C=C/c3ccc(N4CCN(C)CC4)cn3)[C@H]12" : inhibition at minimum 10%?
output: Met

input: Please check the record "C[C@H]1OC(=O)[C@@H]2C=C3CCCC[C@H]3[C@H](/C=C/c3cncnc3)[C@H]12" and state if its inhibition is at or above 10%.
output: Not met

input: Given "C[C@H]1OC(=O)[C@@H]2C=C3CCCC[C@H]3[C@H](/C=C/c3cccnc3)[C@H]12" , state whether its inhibition is at least 10%.
output: Met

input: Hi, just wondering whether "C[C@H]1OC(=O)[C@@H]2C=C3CCCC[C@H]3[C@H](/C=C/c3nc4ccccc4o3)[C@H]12" shows inhibition of 10% or higher.
output: Met

input: Tell me whether inhibition is at least 10% here: "C[C@H]1OC(=O)[C@@H]2C=C3CCCC[C@H]3[C@H](/C=C/c3cnccn3)[C@H]12"
output: Not met
